System: MOLT-4
Assay: NCI tumour cell line growth inhibition, 48 h
Active and inactive are the calls of the source. Cut-off read from the data, not from the text of the source: active = GI50 up to about 1.1 µM and inactive = higher.
Recorded GI50 for the following compounds
readout: GI50

>>> endpoint_value("COc1cc(/C=C2\\CCC(C)(CN(C)C)C2=O)cc(OC)c1OC (stereo unspecified)")
"> 83.6 µM (inactive)"
>>> endpoint_value("CCOC(=O)C(C)(C)C(O)C(C)C (stereo unspecified)")
"> 100 µM (inactive)"
>>> endpoint_value("NC1CNC(=O)c2c(Cl)sc(Cl)c21 (stereo unspecified)")
"78.5 µM (inactive)"
>>> endpoint_value("C/C(=C\\c1ccccc1)C(O)C(=O)c1nc2ccc(Cl)cc2nc1O (stereo unspecified)")
"48.3 µM (inactive)"
>>> endpoint_value("O=C1Oc2ccccc2C(=O)/C1=C1/C=C(c2ccccc2)SS1")
"30.4 µM (inactive)"
>>> endpoint_value("CSc1n[n+](C)cc(N)c1N")
"> 100 µM (inactive)"
>>> endpoint_value("Cn1nc(-c2ccc(S(=O)(=O)N/C(=N/c3ccc(Cl)cc3)NN)s2)cc1C(F)(F)F")
"4.06 µM (inactive)"
>>> endpoint_value("O=C(Nc1ccc2c(c1)oc(=O)c1ccccc12)C(Cl)Cl")
"54.7 µM (inactive)"
>>> endpoint_value("Clc1ccc(-c2nn3c(-c4ccncc4)nnc3s2)cc1")
"> 100 µM (inactive)"
>>> endpoint_value("CN(Cc1cnc2nc(N)nc(N)c2n1)c1ccc(C(=O)NC(CCC(=O)NCCC(P(=O)(O)O)P(=O)(O)O)C(=O)O)cc1 (stereo unspecified)")
"6.5 µM (inactive)"
>>> endpoint_value("O=C(O)CP(=S)(S)c1ccccc1 (stereo unspecified)")
"> 100 µM (inactive)"
